# target_under_test: T1, GFP-9S library array, motif 4 ND N98T;D124N (synthetic construct, N98T;D124N)
# T1 chain: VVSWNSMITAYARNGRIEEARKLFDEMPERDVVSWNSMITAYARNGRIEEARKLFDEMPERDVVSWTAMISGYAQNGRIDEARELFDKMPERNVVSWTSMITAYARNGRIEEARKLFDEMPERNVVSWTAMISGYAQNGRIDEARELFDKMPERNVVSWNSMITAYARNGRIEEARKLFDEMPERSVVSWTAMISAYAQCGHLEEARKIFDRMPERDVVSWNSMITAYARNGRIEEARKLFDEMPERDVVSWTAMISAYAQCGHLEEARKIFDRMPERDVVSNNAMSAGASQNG
# experiment_summary: high-throughput RNA pulldown from lysate on Ni-NTA beads; HRP: 50 mM Tris pH 8, 150 mM NaCl, 1 mM beta-mercaptoethanol, 50 ug/ml BSA, 3 ug/ml yeast RNA, 0.5% heparin; ITC and FP: Tris pH 8, 200 mM KCl, 5% glycerol; MST: 50 mM Tris pH 8, 200 mM NaCl, 1 mM DTT, BSA, heparin, 0.05% Tween 20
# assay_setup: tags: N-terminal His-eGFP; label: 5' IRDye 800CW
value_kind: Kd (nM)
Write the value in nM as a bare number.

binder: AUUAAACGUGA (ssRNA) [IR-rpoA-A]
endpoint_unit: nM
Kd: 8.35

Record AUUAUACGUGA (ssRNA) [IR-rpoA-U] , field Kd: 53.3
